B1: TMEM175 (parent)
chain: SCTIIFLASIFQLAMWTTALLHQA

Variants of: B1
ASSAY_TEXT: protein stability index of a GFP-peptide fusion (GPS, HEK-293T) (PSI 1-6); higher = more stable;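 note: lentivirally expressed fusions sorted by FACS into six bins by GFP to DsRed ratio, PSI derived from sequencing read proportions per bin multiplied by bin number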
APPLIED_CONDITIONS: c terminus: a fixed tail appended
Short version: protein stability index at least 3 is 1 (yes), less is 0 (no).

Worked examples follow.
variant_annotation=W16G label_class="0 (no)"
variant_annotation=L20Q label_class="1 (yes)"
variant_annotation=T17E label_class="0 (no)"
variant_annotation=A8H label_class="1 (yes)"
variant_annotation=Q12Y label_class="0 (no)"
variant_annotation=A14T label_class="0 (no)"

input: hey, is protein stability index for this one >= 3? `I10W`
output: 0 (no)

input: Again, but for `T18K`
output: 0 (no)

input: Again, but for `I4V`
output: 0 (no)

input: Again, but for `T3F`
output: 0 (no)

Cited source: the supplement of paper PMC10567573
